Let's look at some binders and their measured NanoBRET Abs IC50.
Target: T1, B-cat-Halo (UniProt P35222 1-781)
T1 sequence (looked up): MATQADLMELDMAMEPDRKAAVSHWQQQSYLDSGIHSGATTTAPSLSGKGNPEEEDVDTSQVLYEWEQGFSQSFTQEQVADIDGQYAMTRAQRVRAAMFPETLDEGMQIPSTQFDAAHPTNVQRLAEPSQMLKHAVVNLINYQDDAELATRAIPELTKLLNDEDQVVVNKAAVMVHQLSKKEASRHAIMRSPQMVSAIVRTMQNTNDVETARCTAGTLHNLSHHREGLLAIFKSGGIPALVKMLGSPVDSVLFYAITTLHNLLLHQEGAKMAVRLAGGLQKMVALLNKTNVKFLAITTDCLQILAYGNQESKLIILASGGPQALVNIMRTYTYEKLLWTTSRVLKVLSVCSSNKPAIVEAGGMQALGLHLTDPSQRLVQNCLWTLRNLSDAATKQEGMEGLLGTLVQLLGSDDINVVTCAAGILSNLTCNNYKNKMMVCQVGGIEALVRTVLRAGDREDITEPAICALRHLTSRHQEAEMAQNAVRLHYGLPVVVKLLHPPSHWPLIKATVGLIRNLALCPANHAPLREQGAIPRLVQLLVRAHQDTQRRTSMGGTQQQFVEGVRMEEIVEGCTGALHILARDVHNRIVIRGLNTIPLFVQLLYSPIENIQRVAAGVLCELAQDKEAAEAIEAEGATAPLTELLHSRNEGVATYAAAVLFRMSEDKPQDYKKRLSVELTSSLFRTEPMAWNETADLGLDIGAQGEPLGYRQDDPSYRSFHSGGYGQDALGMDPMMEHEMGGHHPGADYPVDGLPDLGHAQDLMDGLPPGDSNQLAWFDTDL
Assay: cell-based or functional assay
Starred links: 1 amine or outer side, 2 acyl side, 3 side chain; linkers in the order of their positions; H or OH if unused. Positions of bridges follow the written chain, without caps; N, C: chain ends. Non-standard residues stand in square brackets, D forms with d. Primed or numbered codes have the meaning given here. PyrS2″ = (S)-3-amino-1-((pent-4-en-1-yloxy)carbonyl)pyrrolidine-3-carboxylic acid (stapling residue), C=CCCCOC(=O)N1CC[C@@](N[*:1])(C(=O)[*:2])C1; B5(32) = 2-amino-2-(pent-4-en-1-yl)hept-6-enoic acid (bis-4-pentenylglycine, two alkene side chains), C=CCCCC(CCCC=C)(N[*:1])C(=O)[*:2]; B5(4) = 2,2-bis(4-pentenyl)glycine = 2-amino-2-(pent-4-en-1-yl)hept-6-enoic acid (stitching residue), C=CCCCC(CCCC=C)(N[*:1])C(=O)[*:2]; PyrS2 = (S)-3-amino-1-((pent-4-en-1-yloxy)carbonyl)pyrrolidine-3-carboxylic acid, C=CCCCOC(=O)N1CC[C@@](N[*:1])(C(=O)[*:2])C1; 3Br4FF = (S)-2-amino-3-(3-bromo-4-fluorophenyl)propanoic acid, O=C([C@H](Cc1ccc(F)c(Br)c1)N[*:1])[*:2]; B5(3) = 2,2-bis(4-pentenyl)glycine (stitching residue), C=CCCCC(CCCC=C)(N[*:1])C(=O)[*:2]; Phe(3-COOH) = N[C@@H](Cc1cccc(C(=O)O)c1)C(=O)O; Bta = N[C@@H](Cc1csc2ccccc12)C(=O)O; αAllylPro = C=CC[C@@]1(C(=O)O)CCCN1; tBuAla = CC(C)(C)C[C@H](N)C(=O)O; 3Thi = N[C@@H](Cc1ccsc1)C(=O)O; PyrS2(4) = not defined here; Aib = CC(C)(N)C(=O)O
Just the number in µM, nothing appended.

These recorded examples may help you get a feel for the data.
Note to self: NanoBRET Abs IC50 recorded for Ac-[αAllylPro]D[tBuAla][B5(3)]D[Phe(3-COOH)]AAFL[PyrS2″][3Thi][Bta]NA[Aib]A[Aib]A-NH2 (staple 1-4, 4-11) [I-2272] was 3

# binder Ac-[αAllylPro]D[tBuAla][B5(4)]D[Phe(3-COOH)]AAFL[PyrS2][3Thi][Bta]NALALALA-NH2 (staple 1-4, 4-11; also: later eluting staple isomer) [I-2284] ; its NanoBRET Abs IC50 = 12.9

Query Ac-[αAllylPro]D[tBuAla][B5(32)]D[Phe(3-COOH)]AAFL[PyrS2][3Thi][Bta]NLLL-NH2 (staple 1-4, 4-11; also: later eluting staple isomer (HPLC peak)) [I-2276] yields NanoBRET Abs IC50 of 4

Per the records, this binder ( Ac-[αAllylPro]D[tBuAla][B5(3)]D[Phe(3-COOH)]AAFL[PyrS2(4)][3Thi][Bta]NAAAAA-NH2 (staple 1-4, 4-11; reading uncertain; also: printed as Ac-PL3-Asp-Npg-B5-Asp-3COOHF-Ala-Ala-Phe-Leu-PyrS2-3Thi-BztA-Asn-Ala-Ala-Ala-Ala-Ala-NH2) [I-2268] ) has NanoBRET Abs IC50 equal to 3.1

Further cases:
Reported NanoBRET Abs IC50 ( Ac-[αAllylPro]D[tBuAla][B5(4)]D[Phe(3-COOH)]AAFL[PyrS2][3Thi][Bta]NALALALA-NH2 (staple 1-4, 4-11; also: earlier eluting staple isomer) [I-2283] ) = 4.5

Entry Ac-[αAllylPro]D[tBuAla][B5(4)]D[Phe(3-COOH)]AAFL[PyrS2][3Thi][3Br4FF]Q-NH2 (staple 1-4, 4-11) [I-2287] , NanoBRET Abs IC50 reported as 7.1
